src = patent US20260125379A1

test-details: Plasma pharmacokinetics in rats after single gavage
Assay type: in vivo
experimental-conditions: rat, po; plasma, SD rats, administration group Compound B6 50 mg/kg by gavage; read-out: Cmax
assay-metric: Cmax (ng/mL)

[P] N#CC[C@H]1CC[C@H](n2c(N)nc3cnc4[nH]ccc4c32)CC1
[Q] N#CC[C@H]1CC[C@H](n2c(/N=N/c3ccc(O)c(C(=O)O)c3)nc3cnc4[nH]ccc4c32)CC1
Decide: P or Q , by lowest recorded Cmax. Select an item and report its label.
Q

* * *

experimental-system: JAK2 (Homo sapiens, UniProt O60674)
Sequence (O60674 whole entry, species assumed): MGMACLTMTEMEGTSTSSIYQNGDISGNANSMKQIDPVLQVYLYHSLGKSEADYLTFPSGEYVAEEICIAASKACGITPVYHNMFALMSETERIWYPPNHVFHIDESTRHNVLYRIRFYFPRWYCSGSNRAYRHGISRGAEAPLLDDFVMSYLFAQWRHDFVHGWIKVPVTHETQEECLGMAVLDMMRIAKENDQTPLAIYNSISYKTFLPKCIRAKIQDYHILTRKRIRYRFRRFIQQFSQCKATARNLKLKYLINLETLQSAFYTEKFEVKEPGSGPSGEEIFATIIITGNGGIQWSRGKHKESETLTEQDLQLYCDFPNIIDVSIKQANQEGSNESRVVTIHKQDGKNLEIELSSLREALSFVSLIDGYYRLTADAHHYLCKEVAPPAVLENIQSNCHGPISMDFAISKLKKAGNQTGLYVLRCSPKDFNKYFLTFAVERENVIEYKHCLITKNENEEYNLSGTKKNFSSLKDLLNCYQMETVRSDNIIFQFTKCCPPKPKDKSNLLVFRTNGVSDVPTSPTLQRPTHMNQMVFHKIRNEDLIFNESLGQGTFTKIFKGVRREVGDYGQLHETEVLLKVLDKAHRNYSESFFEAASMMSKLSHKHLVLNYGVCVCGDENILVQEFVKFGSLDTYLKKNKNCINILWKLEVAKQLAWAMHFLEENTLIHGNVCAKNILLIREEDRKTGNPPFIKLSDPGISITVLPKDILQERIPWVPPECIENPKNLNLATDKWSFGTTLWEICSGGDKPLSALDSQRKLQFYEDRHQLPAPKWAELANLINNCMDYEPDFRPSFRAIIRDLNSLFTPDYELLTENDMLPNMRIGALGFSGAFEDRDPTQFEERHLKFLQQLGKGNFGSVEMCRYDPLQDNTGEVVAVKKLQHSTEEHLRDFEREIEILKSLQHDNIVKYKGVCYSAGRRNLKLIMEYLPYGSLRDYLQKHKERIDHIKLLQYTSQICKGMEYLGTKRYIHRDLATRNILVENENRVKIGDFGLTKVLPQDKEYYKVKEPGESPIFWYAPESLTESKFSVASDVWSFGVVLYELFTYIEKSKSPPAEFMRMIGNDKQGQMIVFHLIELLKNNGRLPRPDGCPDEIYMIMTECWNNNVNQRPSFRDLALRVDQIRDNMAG
pIC50: −log10 of the molar value.
assay-metric: pIC50

Field: example entries. Status: answers known.
smiles-repr | pIC50
C[C@@H](OC(=O)CN(C)C)c1nc2cnc3[nH]ccc3c2n1N1CCC(CC#N)CC1 | 7.24
C[C@@H](OC(=O)CCCCO[N+](=O)[O-])c1nc2cnc3[nH]ccc3c2n1N1CCC(CC#N)CC1 | 7.39

[I] N#CC[C@H]1CC[C@H](n2c(/N=N/c3ccc(O)c(C(=O)O)c3)nc3cnc4[nH]ccc4c32)CC1
[II] N#CC[C@H]1CC[C@H](n2c(/N=N/c3ccc(O)c(C(=O)N[C@H](CCC(=O)O)C(=O)O)c3)nc3cnc4[nH]ccc4c32)CC1
[III] N#CCC1CCN(n2c(N)nc3cnc4ccsc4c32)CC1
[IV] C[C@@H](OC(=O)OCc1ccc(/N=N/c2ccc(O)c(C(=O)O)c2)cc1)c1nc2cnc3[nH]ccc3c2n1N1CCC(CC#N)CC1
[V] N#CC[C@H]1CC[C@H](n2c(/N=N/c3ccc(O)c(C(=O)NCCS(=O)(=O)O)c3)nc3cnc4[nH]ccc4c32)CC1
Order these by pIC50, descending, and give the full ranking. Put the labels in the requested order and write them down.
II, V, I, III, IV
